Cited source: patent US20260256921A1

# tested on: Biotinylated Human TNF-α Protein (active trimer) (Homo sapiens, UniProt P01375)
# Construct: purchased ACROBiosystems TNA-H82E3
# Sequence (P01375 77-233 limits assumed): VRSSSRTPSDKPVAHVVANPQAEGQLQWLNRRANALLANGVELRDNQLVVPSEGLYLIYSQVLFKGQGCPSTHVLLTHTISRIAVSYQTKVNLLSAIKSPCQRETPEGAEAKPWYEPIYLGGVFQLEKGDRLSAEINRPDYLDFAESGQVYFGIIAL
# measurement description: Octet (BLI) binding to TNF-α
# measurement parameters: 1:1 binding model, N.B. = No Binding

- compound: "CCC(=O)N[C@H]1CO[C@H](COCCOCCOCCOCCn2cc(COCCNC(=O)CNC(=O)CCOCCOCCC(=O)N3CCN(Cc4ccc(-c5c[nH]c6ccncc56)c(OCCc5ccc(-c6cccc7ccncc67)cc5)c4)CC3)nn2)[C@H](O)[C@@H]1O [Compound 107]"
  tested on: "Biotinylated Human TNF-α Protein (active trimer) (Homo sapiens, UniProt P01375)"
  Octet Kd TNF-α: "N.B."
- compound: "CCC(=O)NC1COC(COCCOCCOCCOCCn2cc(COCC(COCc3cn(CCOCCOCCOCCOCC4OCC(NC(=O)CC)C(O)C4O)nn3)(COCc3cn(CCOCCOCCOCCOCC4OCC(NC(=O)CC)C(O)C4O)nn3)NC(=O)CNC(=O)CCC(=O)N3CCN(Cc4ccc(-c5c[nH]c6ccncc56)c(OCCc5ccc(-c6cccc7ccncc67)cc5)c4)CC3)nn2)C(O)C1O (centres unmarked) [Compound 104]"
  tested on: "Biotinylated Human TNF-α Protein (active trimer) (Homo sapiens, UniProt P01375)"
  Octet Kd TNF-α: "N.B."

* * *

# tested on: human TNF-α (Homo sapiens)
# measurement description: TNF-α thermal melt assay
# Assay type: binding
# Parameters: Amino acids 77-233 of Human TNF-α protein with an N-terminal GST tag; GST (N, cleaved yes); made in house; host or cells: Escherichia coli (BL21 NiCo)
# measurement parameters: thermal melt, SYPRO Orange, Kd calculated as in Matulis et al.; read-out: TM Kd
Kindly supply the reported Kd values for the records listed here.
Numbers only, in nM.

Worked cases, answers included:
- compound: "CCC(=O)NC1COC(COCCOCCOCCOCCn2cc(COCC(COCc3cn(CCOCCOCCOCCOCC4OCC(NC(=O)CC)C(O)C4O)nn3)(COCc3cn(CCOCCOCCOCCOCC4OCC(NC(=O)CC)C(O)C4O)nn3)NC(=O)CNC(=O)CCC(=O)N3CCN(Cc4ccc(-c5c[nH]c6ccncc56)c(OCCc5ccc(-c6cccc7ccncc67)cc5)c4)CC3)nn2)C(O)C1O (centres unmarked)"
  units: "nM"
  Kd: 1000
- compound: "O=C(O)CCOCCOCCC(=O)N1CCN(Cc2ccc(-c3c[nH]c4ccncc34)c(OCCc3ccc(-c4cccc5ccncc45)cc3)c2)CC1 [Intermediate 24]"
  units: "nM"
  Kd: 220
- compound: "CCC(=O)NC1COC(COCCOCCOCCOCCn2cc(COCCNC(=O)CNC(=O)CCOCCOCCOCCOCCOCCOCCC(=O)N3CCN(Cc4ccc(-c5c[nH]c6ccncc56)c(OCCc5ccc(-c6cccc7ccncc67)cc5)c4)CC3)nn2)C(O)C1O (centres unmarked)"
  units: "nM"
  Kd: 65

Each compound below has a reported value. Please supply its Kd.
1. CCC(=O)N[C@H]1CO[C@H](COCCOCCOCCOCCn2cc(COCCNC(=O)CNC(=O)CCC(=O)N3CCN(Cc4ccc(-c5c[nH]c6ccncc56)c(OCCc5ccc(-c6cccc7ccncc67)cc5)c4)CC3)nn2)[C@H](O)[C@@H]1O
2. CC(C)(C)OC(=O)CCOCCOCCOCCOCCOCCOCCOCCOCCC(=O)N1CCN(Cc2ccc(-c3c[nH]c4ccncc34)c(OCCc3ccc(-c4cccc5ccncc45)cc3)c2)CC1 [Intermediate 3]

Response line:
1. 50
2. 120
